# target: Human immunodeficiency virus type 1 reverse transcriptase (Human immunodeficiency virus 1) (UniProt Q72547)
# assay-explanation: The compound was tested for inhibitory activity against Recombinant HIV-1 reverse transcriptase
reported-metric: IC90 (µM)
Provide only the numeric value, understood in µM.

Consider the molecule shown here: Nc1ccn(C2C=CC(COP(=O)(O)OP(=O)(O)OP(=O)(O)O)C2)c(=O)n1 (racemic) What is its recorded IC90?
3.4

Reported IC90 for Nc1nc(=O)n([C@H]2C=C[C@@H](COP(=O)(O)OP(=O)(O)OP(=O)(O)O)C2)cc1F (racemic) : what is it?
2.2

Suppose we examine the molecule Nc1ccc([C@@H]2CS[C@H](OP(=O)(O)OP(=O)(O)OP(=O)(O)O)O2)c(O)n1 ; what IC90 value has been reported?
29.8

Item Nc1nc(=O)n(C2C=CC(COP(=O)(O)OP(=O)(O)OP(=O)(O)O)C2)cc1F (racemic) has what recorded IC90?
4

###

# assay-explanation: Tested in vitro for cytotoxicity against PBM cells
# Assay type: functional, cell-based
# experimental-conditions: Homo sapiens, PBMC
reported-metric: pIC50
Scale for pIC50: -log10 of concentration given in mol/L; no unit attached.

Which measured pIC50 value corresponds to O=c1[nH]cc(F)c(=O)[nH]1 [FLUOROURACIL] ?
5.30

Bench note: what pIC50 did C[C@@H]1C[C@@H]([C@H](O)CC2CC(=O)NC(=O)C2)C(=O)[C@@H](C)C1 [CYCLOHEXIMIDE] show?
5.68

Returns the measured pIC50 for the input compound. Input: Nc1nc(=O)n([C@H]2C=C[C@@H](CO)O2)cc1I
4.01

Find the recorded pIC50 belonging to CCCNc1nc(=O)n([C@H]2C=C[C@@H](CO)O2)cc1F and report it.
4.46

Sample O=c1[nH]c(=O)n([C@@H]2C=C[C@@H](CO)O2)cc1F — what was its pIC50?
4.32

Quick one: pIC50 of O=c1[nH]c(=O)n([C@@H]2C=C[C@H](CO)O2)cc1F ?
5.64

Tell me the measured pIC50 of Nc1nc(=O)n([C@H]2C=C[C@@H](CO)O2)cc1Br , please.
4.04

Value lookup for pIC50; key = Nc1nc(=O)n([C@@H]2C=C[C@H](CO)O2)cc1F [ELVUCITABINE]
4.89

So what does the record say about pIC50 for O=C1NC(O)C(F)=CN1[C@H]1C=C[C@@H](CO)O1 (stereo partly drawn) ?
4.49

###

# target: Human immunodeficiency virus type 1 reverse transcriptase (Human immunodeficiency virus 1)
# assay-explanation: The compound was tested for inhibitory activity against Recombinant HIV-1 reverse transcriptase
reported-metric: pIC50
In simple prose, pIC50 is minus the logarithm base ten of a concentration in moles per litre.

For the compound Nc1ccn(C2C=CC(COP(=O)(O)OP(=O)(O)OP(=O)(O)O)C2)c(=O)n1 (racemic) , what pIC50 is on record?
6.42

Recorded pIC50 of Nc1nc(=O)n([C@H]2C=C[C@@H](COP(=O)(O)OP(=O)(O)OP(=O)(O)O)C2)cc1F (racemic) , please.
6.57

Query (compound): Nc1ccc([C@@H]2CS[C@H](OP(=O)(O)OP(=O)(O)OP(=O)(O)O)O2)c(=O)[nH]1 ; field requested: pIC50
5.44

Given the entry Nc1nc(=O)n(C2C=CC(COP(=O)(O)OP(=O)(O)OP(=O)(O)O)C2)cc1F (racemic) , report its measured pIC50.
6.40

Value source: ChEMBL document CHEMBL1132699
